What pIC50 was measured for each of the following?
Test system: Human umbilical vein endothelial cells (HUVEC)
test method notes: Inhibition of hFGF-2 mediated HUVEC proliferation
Assay type: cell-based
condition parameters: 72 h
Recall that pIC50 is obtained by taking minus log10 of the concentration measured in molar.

Input: Please report the recorded pIC50 for COc1cc(C)cc2cc(-c3c(COC4CCC4)c(CN4CCNCC4)n4ncnc(N)c34)sc12 [Example 26] .
Output: 7.25

Input: Ok, now COc1cc(C)cc2cc(-c3c(COCC(N)=O)c(CN4CCN(C(C)=O)CC4)n4ncnc(N)c34)sc12 [Example 34]
Output: 7.43

Input: Ok, now COc1cc(C)cc2cc(-c3c(CO)c(C(C)(C)O)n4ncnc(N)c34)sc12 [Example 73]
Output: 8.26

Input: Ok, now COc1cc(C)cc2cc(-c3c(CN4CCNC(=O)C4)c(CN4CCOCC4)n4ncnc(N)c34)sc12 [Example 52]
Output: 8.40

###

system tested: FGFR-3 (Homo sapiens, UniProt P22607)
Sequence (P22607 397-806): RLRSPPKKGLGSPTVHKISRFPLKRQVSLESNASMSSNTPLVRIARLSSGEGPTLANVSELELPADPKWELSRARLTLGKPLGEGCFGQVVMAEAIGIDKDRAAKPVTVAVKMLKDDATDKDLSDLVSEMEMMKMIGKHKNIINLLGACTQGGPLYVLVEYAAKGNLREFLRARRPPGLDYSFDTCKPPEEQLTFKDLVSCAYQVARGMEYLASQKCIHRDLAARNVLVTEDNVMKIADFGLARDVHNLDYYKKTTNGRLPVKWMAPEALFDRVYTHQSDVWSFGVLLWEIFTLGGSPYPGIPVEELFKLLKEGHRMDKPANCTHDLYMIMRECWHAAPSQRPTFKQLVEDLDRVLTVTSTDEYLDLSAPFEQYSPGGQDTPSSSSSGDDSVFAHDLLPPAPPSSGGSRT
Where a name gives a salt, the structure may show the parent alone.
readout label: IC50 (nM)
Value expressed in nM; do not type the unit.

Input: Give the reported IC50 for COc1cc(C)cc2cc(-c3c(COCCO)c(CN4CCNCC4)n4ncnc(N)c34)sc12 [Example 22, dihydrochloride] (system: FGFR-3 (Homo sapiens, UniProt P22607)).
Output: 4.7

Input: Ok, now COc1cc(C)cc2cc(-c3c(CNC4CC4)c(CN4CCNCC4)n4ncnc(N)c34)sc12 [Example 46, trihydrochloride]
Output: 8.1

Input: Ok, now COc1cc(C)cc2cc(-c3c(COCCN)c(CN4CCNCC4)n4ncnc(N)c34)sc12 [Example 30, trihydrochloride]
Output: 6.4

Input: Ok, now COc1cc(C)cc2cc(-c3c(CNCCO)c(CN4CCNCC4)n4ncnc(N)c34)sc12 [Example 39, trihydrochloride]
Output: 4.9

###

Test system: Human umbilical vein endothelial cells (HUVEC)
test method notes: Inhibition of hFGF-2 mediated HUVEC proliferation
Assay type: cell-based
condition parameters: 72 h
In plain terms, low IC50, meaning strictly below 3 nM, gives Criterion met, and everything else gives Criterion not met.

Input: Say whether its IC50 is strictly beneath 3 nM. Entry: COc1cc(C)cc2cc(-c3c(CO)c(C#N)n4ncnc(N)c34)sc12
Output: Criterion not met

Input: Ok, now COc1cc(C)cc2cc(-c3c(CNC(C)=O)c(CNC(C)=O)n4ncnc(N)c34)sc12
Output: Criterion met

Input: Ok, now COc1cc(C)cc2cc(-c3c(CO)c(Cl)n4ncnc(N)c34)sc12
Output: Criterion not met

Input: Ok, now COc1cc(C)cc2cc(-c3c(CO)c(CN4CCNC(=O)C4)n4ncnc(N)c34)sc12
Output: Criterion not met

Input: Ok, now COc1cc(C)cc2cc(-c3c(CNCC(C)(C)O)c(CN4CCOCC4)n4ncnc(N)c34)sc12
Output: Criterion met

Input: Ok, now COc1cc(C)cc2cc(-c3c(CNCC(C)O)c(CN4CCOCC4)n4ncnc(N)c34)sc12 (racemic)
Output: Criterion not met

Input: Ok, now COc1cc(C)cc2cc(-c3c(CNC(C)=O)c(CN4CCNC(=O)C4)n4ncnc(N)c34)sc12
Output: Criterion not met

Input: Ok, now COc1cc(C)cc2cc(-c3c(CN[C@H]4CCNC4=O)c(CN4CCOCC4)n4ncnc(N)c34)sc12
Output: Criterion met
